Where do the numbers come from? From patent US20230295293A1.

- assayed_target: T1, Cyno FRα ECD-Avi-His (cynomolgus monkey, biotin on the Avi-tag (BirA) in the HTRF assays)
- T1 construct: Soluble region with C-terminal Avi and His tags
- T1 sequence (chain, as listed by the source limits assumed): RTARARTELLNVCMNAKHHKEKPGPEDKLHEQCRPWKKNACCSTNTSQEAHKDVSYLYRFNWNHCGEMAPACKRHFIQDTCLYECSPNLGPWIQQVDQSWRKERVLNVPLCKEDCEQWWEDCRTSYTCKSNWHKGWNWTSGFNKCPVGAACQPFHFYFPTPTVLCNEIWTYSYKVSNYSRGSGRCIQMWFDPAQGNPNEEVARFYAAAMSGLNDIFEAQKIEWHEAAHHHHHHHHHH
- assay_details: SPR (Biacore T200, 25°C); antibody captured on Protein A, FRα ECD as analyte
experimental_readout: Kd (nM)
Respond numerically; units are nM and should not be typed.

Value of measured Kd for the entry AB1370026 hIgG1 (antibody, V domains shown) VH: EVQLVESGGGLVKPGGSLRLSCAASGFTFSSYAMSWVRQAPGKGLEWVSSISSGRSYIYYADSVKGRFTISRDNAKNSLYLKMNSLRDEDTAVYYCAREMQQLALDYWGQGTLVTVSS VL: DIQMTQSPSSLSASVGDRVTITCRASQGISNFLAWFQQAPGKAPKSLIYAASSLQSGVPSKFSGSGSGTDFTLTISSLQPEDFATYYCQQYNSYPFTFGQGTKLEIKR : 1.8

Value of measured Kd for the entry AB1370083 hIgG1 (antibody, V domains shown) VH: EVQLVESGGGLVKPGGSLRLSCAASGFTFSSYNMNWVRQAPGKGLEWVSSISSGSSYIYYADSMKGRFTISRDNAKNSLFLQMNSLRAEDTAVYYCARGMTTLTFDYWGQGTLVTVSS VL: DIQMTQSPSSLSASVGDRVTITCRASQGISTFLAWFQQKPGKAPKSLIYAASSLQSGVPSKFSGSGSETDFTLTISSLQPEDFATYYCQQYISYPLTFGGGTKVEIKR : 1.56

Value of measured Kd for the entry AB1370035 hIgG1 (antibody, V domains shown) VH: QVQLQQSGPGLVKPSQTLSLTCAISGDSVSSNSAAWNWIRQSPSRGLEWLGRTYYRSNWYNDYTLSVKSRITVNPDTSKNQFSLQLNSVTPEDTAVYYCVRGVGRFDSWGQGTLVTVSS VL: DIQMTQSPSTLSASVGDRVIITCRASQSISSWLAWYQQKPGKAPKLLIYKASSLESGVPSRFSGSGSGTEFTLTITSLQPDDFASYYCQEYKTYSIFTFGPGTKVDIKR : 1.1

Value of measured Kd for the entry AB1370095 hIgG1 (antibody, V domains shown) VH: EVQLVESGGGLVKPGGSLRLSCAASGFTFSSYSMNWVRQAPGKGLEWVSSISSRSSYVYYADSVKGRFTISRDNAKNSLYLQMNSLRAEDTAVYYCARGMTTLTFDYWGQGTLVTVSS VL: DIQMTQSPSSLSASVGDRVTITCRASQGISSFLAWFQQKPGKAPKSLIYAASSLQSGVPSKFSGSGSGTDFTLTISSLQPEDFATYYCQQYNSYPLTFGGGTKVEIKR : 19.1
